Molecular target: PdxH (Escherichia coli)
Construct: recombinant, purified to homogeneity as previously reported
Sequence (P0AFI7 2-218): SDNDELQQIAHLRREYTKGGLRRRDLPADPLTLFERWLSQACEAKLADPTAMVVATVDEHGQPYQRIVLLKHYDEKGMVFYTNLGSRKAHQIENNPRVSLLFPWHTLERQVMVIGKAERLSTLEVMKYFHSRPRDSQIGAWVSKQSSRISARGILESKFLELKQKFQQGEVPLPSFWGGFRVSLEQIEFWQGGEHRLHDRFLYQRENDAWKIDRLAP
Assay: spectrophotometric PLP formation at […] nm
Details: read-out: apparent inhibition constant
experimental.endpoint: Ki (µM)

[[record]]
smiles_data = "Cc1ncc(COP(=O)(O)O)c(C)c1O"
value_unit = "µM"
recorded_measurement = 530


----------
Target: GlyA (Escherichia coli, UniProt P0A825)
Construct: recombinant, purified to homogeneity as previously reported; apoenzyme reconstituted with PLP
Sequence (P0A825 1-417): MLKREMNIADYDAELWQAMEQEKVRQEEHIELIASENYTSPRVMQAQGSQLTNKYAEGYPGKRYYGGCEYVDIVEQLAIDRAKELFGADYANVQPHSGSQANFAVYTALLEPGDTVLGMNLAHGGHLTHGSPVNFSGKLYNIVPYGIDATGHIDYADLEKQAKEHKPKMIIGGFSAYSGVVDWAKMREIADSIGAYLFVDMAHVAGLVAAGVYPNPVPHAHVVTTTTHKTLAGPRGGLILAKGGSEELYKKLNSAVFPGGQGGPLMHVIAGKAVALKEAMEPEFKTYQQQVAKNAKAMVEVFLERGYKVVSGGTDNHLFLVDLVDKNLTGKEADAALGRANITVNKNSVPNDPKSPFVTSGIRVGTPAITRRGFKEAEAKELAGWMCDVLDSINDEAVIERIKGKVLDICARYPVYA
Assay: spectrophotometric coupled SHMT assay
Settings: read-out: apparent inhibition constant
pKi: −log10 of the molar value.
experimental.endpoint: pKi

[[record]]
smiles_data = "Cc1ncc(COP(=O)(O)O)c(C)c1O"
experimental_endpoint = "pKi"
recorded_measurement = 4.30


----------
Biological target: PdxK (Escherichia coli, UniProt P40191)
Construct: recombinant, purified to homogeneity as previously reported
Sequence (P40191 whole entry): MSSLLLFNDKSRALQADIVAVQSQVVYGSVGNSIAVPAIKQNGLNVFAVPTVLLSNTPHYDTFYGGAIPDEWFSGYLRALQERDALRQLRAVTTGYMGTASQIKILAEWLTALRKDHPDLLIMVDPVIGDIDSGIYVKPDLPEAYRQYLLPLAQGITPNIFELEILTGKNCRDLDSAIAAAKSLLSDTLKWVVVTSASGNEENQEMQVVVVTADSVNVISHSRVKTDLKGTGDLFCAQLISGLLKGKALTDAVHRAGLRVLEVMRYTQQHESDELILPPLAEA
Assay: spectrophotometric PLP formation at […] nm
Settings: read-out: inhibition constant
pKi: −log10 of the molar value.
experimental.endpoint: pKi

[[record]]
compound = "Cc1ncc(CO)c(C)c1O [4dPN]"
recorded_measurement = 6.30

